# reported growth; entries follow
System: SF-268 CNS
ASSAY_INFO: NCI-60 one-dose screen, 48 h (100 = growth as untreated, 0 = no growth, -100 = all killed)
RUN_PARAMETERS: 10 µM
Compounds without any hit were thinned out: in the full panel of roughly 83,000, 20% have a hit.
VALUE_KIND: growth (%)

molecule=COc1ccc2nc(C)cc(Nc3ccc(Cl)cc3)c2c1 recorded_measurement=103
molecule=CCc1ccc(-c2nnc(COc3ccc(-c4nc5ccc(C)cc5[nH]4)cc3OC)o2)cc1 recorded_measurement=55.6
molecule=COc1cc2ccnc(C=O)c2cc1OC recorded_measurement=92
molecule=Nc1nc(SCC#CCCl)c2[nH]cnc2n1 recorded_measurement=52.8
molecule=O=C(Nc1ccc(OCc2nnc(-c3ccccc3)o2)c(F)c1)Nc1ccc(Cl)c(Cl)c1 recorded_measurement=80.7
molecule="CCCCCN(CCCCC)C(C)C(O)c1ccc2cc(Cl)c3ccccc3c2c1 (stereo not drawn)" recorded_measurement=102
molecule=COc1ccc2oc(=O)cc(C(c3ccc[nH]3)c3ccc[nH]3)c2c1 recorded_measurement=18.7
molecule=CCN(CC)CCOC(=O)c1ccc(NC(=O)Nc2cccc(Cl)c2)cc1 recorded_measurement=97.3
molecule=CCCCCCOc1ccc(/C=C/C(=O)c2ccc(B(O)O)cc2)cc1 recorded_measurement=76.1
molecule=CCOC(=O)c1cc(-c2ccccc2)nc(N)n1 recorded_measurement=106
molecule=O=NN(CCCl)C(=O)NCc1ccc(-c2ccc(CNC(=O)N(CCCl)N=O)cc2)cc1 recorded_measurement=69.7
molecule=O=C(Nc1cccc(C(F)(F)F)c1)C(Cl)Cl recorded_measurement=99.4
molecule=O=C1NN(c2ccccc2)C(c2cccnc2)=N/C1=C\c1cccnc1 recorded_measurement=89.4
molecule=N#Cc1c2c([nH]c(=O)c1C(N)=O)CCCCC2 recorded_measurement=103
molecule=COC(=O)c1cnc2c(c1)Oc1ccccc1-c1ccnn1-2 recorded_measurement=98.7
molecule=COc1cc(-c2nc(-c3nnc(-c4cccnc4)o3)c3ccccn23)cc(OC)c1OC recorded_measurement=95.7
molecule=O=S(=O)(NCl)c1ccccc1 recorded_measurement=99.9
molecule="c1ccc(CC(NCCNC(Cc2ccccc2)c2ccccc2)c2ccccc2)cc1 (stereo not drawn)" recorded_measurement=43.1
molecule=O=C(COc1ccc(-c2nc3ccccc3[nH]2)cc1)N=Nc1c(O)[nH]c2ccccc12 recorded_measurement=98.3
molecule=COc1ccc(-c2cc(/C=C/C(=O)c3ccc(N)cc3)[nH]n2)cc1OC recorded_measurement=18.8
molecule=CS(=O)(=O)Nc1ccc(OCc2nnc(-c3ccc(Cl)cc3)o2)c(F)c1 recorded_measurement=98.9
molecule=O=C(N/N=C/c1ccccc1O)c1ccccc1 recorded_measurement=30
molecule=O=[N+]([O-])c1ccc(-c2nc(-c3ccccc3)c(-c3ccccc3)n2-c2ccccc2)cc1 recorded_measurement=65.8
